tested on: U251 CNS; assay: NCI-60 one-dose screen, 48 h (100 = growth as untreated, 0 = no growth, -100 = all killed); conditions: 10 µM unless noted
Compounds without any hit were thinned out: in the full panel of roughly 83,000, 20% have a hit.
Assign label 1 whenever growth does not fall below 60%; assign label 0 whenever it does.

See these solved cases before continuing.
Compound smiles	Group
COc1cc2cc(Oc3cccc(NC(=O)Nc4cc(C(F)(F)F)cc(C(F)(F)F)c4)c3)c(C)nc2cc1OC	label 0
N#Cc1cc(-c2nc3ccccc3s2)c(=O)n(NS(=O)(=O)c2ccccc2)c1N	label 1

Does COc1cc(NC(=O)CSc2nc3ccc(C)cc3c(=O)n2Cc2ccccc2)cc(OC)c1OC have a reported growth of at least 60%?
label 0

Does COc1ccccc1NS(=O)(=O)c1cccc(C(=O)Nc2ccc(Br)cc2)c1 have a reported growth of at least 60%?
label 1

Does COc1ccc(CCn2cncc2-c2c[nH]c3ccccc23)cc1 have a reported growth of at least 60%?
label 1

Does O=C(/C=C(/C=C/c1csc2ccccc12)OB(F)F)/C=C/c1csc2ccccc12 have a reported growth of at least 60%?
label 0

Does C=C(C)[C@@H]1CC[C@]2(C(=O)N[C@H](CO)Cc3ccccc3)CC[C@]3(C)[C@H](CC[C@@H]4[C@@]5(C)CCCNC(C)(C)[C@@H]5CC[C@]43C)[C@@H]12 have a reported growth of at least 60%?
label 0

Does O=C1Nc2cc(-c3ccc(NS(=O)(=O)c4ccccc4)cc3)ccc2/C1=C/c1ccc[nH]1 have a reported growth of at least 60%?
label 1

* * *

growth for assorted compounds
system: SK-MEL-2 melanoma; test: NCI-60 one-dose screen, 48 h (100 = growth as untreated, 0 = no growth, -100 = all killed); conditions: 10 µM unless noted
The panel holds about 83,000 compounds, 20% with a hit somewhere; the sample as a whole holds those more often.
Report the figure in % without appending any unit label.

Compound smiles	Study system	Result unit	growth
Cc1nc2ccc(Cl)cn2c1-c1nnc(SCc2ccc([N+](=O)[O-])cc2)o1	SK-MEL-2 melanoma	%	84.9
C=C(C)[C@@H]1CC[C@]2(C(=O)N[C@@H](Cc3ccccc3)C(=O)OC)CC[C@]3(C)[C@H](CC[C@@H]4[C@@]5(C)CCC(=O)C(C)(C)[C@@H]5CC[C@]43C)[C@@H]12	SK-MEL-2 melanoma	%	75.8

Please fill in: growth reported for CCC(=O)Oc1ccc(/C(=C(\C)c2ccccc2)c2ccc(OCCN3CCCCC3)cc2)cc1 = 92.1

Please fill in: growth reported for O=C(CCN1CCCC1)Nc1ccc2c(NCc3ccccc3)c3ccccc3nc2c1 = -1.81

* * *

System: EKVX NSCLC
Assay: NCI-60 one-dose screen, 48 h (100 = growth as untreated, 0 = no growth, -100 = all killed)
Conditions: 10 µM unless noted
Procedure: Growth inhibition of the EKVX human Non-Small Cell Lung tumor cell line is measured as a screen for anti-cancer activity. Cells are grown in 96 well plates and exposed to the test compound for 48 hours. Compounds are tested at a single concentration, which is 10^-5 M for most compounds. The reported endpoint is percent growth (GI% or GIPRCNT), where numbers from 0 - 100% represent growth inhibition, and numbers from -100% - 0 represent cell death. […]
Compounds without any hit were thinned out: in the full panel of roughly 83,000, 20% have a hit. Activity calls are given as the source filed them. Rule for the calls: active = growth percent below 10; inactive = the rest.
growth for assorted compounds

Please fill in: growth reported for COc1cc2nc(-c3ccc(Cl)cc3)cc(OCCCN3CCCC3)c2cc1OC = 65.8% (inactive)

Please fill in: growth reported for OC(c1cccc(C(F)(F)F)c1)c1cnccc1NC1CCCCC1 (stereo not drawn) = 77.6% (inactive)

* * *

tested on: COLO 205 colon; assay: NCI-60 one-dose screen, 48 h (100 = growth as untreated, 0 = no growth, -100 = all killed); conditions: 10 µM unless noted
This is part of a sample that, as a whole, favours compounds with a hit. Of some 83,000 tested, about 20% had one in any assay.
Observation type: growth (%)
Report the figure in % without appending any unit label.

Example molecules with recorded growth:
Molecule	Observation type	Value reported
NS(=O)(=O)c1ccc(Cn2c(SCC(=O)N/N=C/c3ccccc3O)nc3ccccc3c2=O)cc1	growth	29.1
CC(c1ccccc1)C(C(=O)c1ccccc1)c1ccccc1 (stereo not given)	growth	112
CC1(C)NCCC[C@]2(C)[C@H]3CC[C@@H]4[C@H]5[C@H](C(=O)/C=C/c6ccco6)CC[C@]5(CO)CC[C@@]4(C)[C@]3(C)CC[C@@H]12	growth	-2.99
C=C1C(=O)O[C@H]2[C@H]1CC/C(COC(=O)NCc1c[nH]c3ccc(Cl)cc13)=C\CC[C@@]1(C)O[C@@H]21	growth	-59.3
Cn1cc(-c2csc(-c3c[nH]c4ccccc34)n2)c2ccnc(Cl)c21	growth	46.7

Please fill in: growth reported for Nc1c(S(=O)(=O)O)cc2c3c(cccc13)C(=O)OC2=O = 111

Please fill in: growth reported for COc1cc(NCCCCCNC(C)(C)C)c2ncccc2c1 = 110

Please fill in: growth reported for O=C1c2ccccc2CCC12OC2c1cn(-c2ccccc2)nc1-c1ccc(Cl)cc1 (stereo not given) = 93.9

Please fill in: growth reported for CCOC(=O)c1cc(C(=O)c2cc(OC)cc(OC)c2)n2ccc3ccccc3c12 = 115

Please fill in: growth reported for CCNC(=O)Oc1ccc(/C(=C(\C)c2ccccc2)c2ccc(OCCCN(C)C)cc2)cc1 = 54.5

* * *

system: BT-549 breast; assay: NCI-60 one-dose screen, 48 h (100 = growth as untreated, 0 = no growth, -100 = all killed); settings: 10 µM unless noted
Compounds without any hit were thinned out: in the full panel of roughly 83,000, 20% have a hit.
growth for assorted compounds
Report the figure in % without appending any unit label.

Example compounds with recorded growth:
Compound smiles	Value reported
O=c1ccc(-c2nc(N3CCOCC3)c3ccccc3n2)c[nH]1	97.4
O=C1NN(C(=O)c2ccccc2)C(c2ccc(Cl)c(Cl)c2)=C/C1=C\c1ccc([N+](=O)[O-])cc1	52.4
O=C(Nc1ccc(F)cc1)Nc1ccc(NC(=O)c2cc(Cl)nc3ccccc23)cc1	37.2
CC(=O)Nc1ccc(-c2ccc3c(c2)NC(=O)/C3=C\c2ccc[nH]2)cc1	83.5

Please fill in: growth reported for COc1cc(-c2n/c(=C\c3c(O)[nH]c4ccc(Cl)cc34)cc3c2=Nc2ccccc2-3)ccc1F = 85.9

* * *

system: SK-MEL-2 melanoma; test: NCI-60 one-dose screen, 48 h (100 = growth as untreated, 0 = no growth, -100 = all killed); conditions: 10 µM unless noted
Compounds without any hit were thinned out: in the full panel of roughly 83,000, 20% have a hit.
Observation type: growth (%)
Report the figure in % without appending any unit label.

Example compounds with recorded growth:
Compound	growth [%]
CCCCCC(=O)Oc1ccc(/C(=C(/C)Cc2ccc(OC)cc2)c2ccc(OCCCN(C)C)cc2)cc1	114
Cc1ccc(-c2[nH][nH]c(=O)c2-c2nc3ccccc3s2)cc1	108
Cn1c(-c2c(N)n(CCCN3CCOCC3)c3nc(C#N)c(C#N)nc23)nc2ccccc21	109
CCOC(=O)Oc1c(OC)cc(C(=O)c2ccc(OC)c(OC(=O)CCl)c2OC)cc1OC	8.91
CCCNC(=O)Oc1ccc(/C(=C(\C)c2ccccc2)c2ccc(OCCCN(C)C)cc2)cc1	92.6

Now let's try a different one.
Please fill in: growth reported for O=C(O)c1ccc(NCc2cn(-c3ccc(C(F)(F)F)cc3)nc2-c2ccc(C(=O)O)cc2)cc1 = 112

* * *

system: MOLT-4 leukemia; assay: NCI-60 one-dose screen, 48 h (100 = growth as untreated, 0 = no growth, -100 = all killed); conditions: 10 µM unless noted
Compounds without any hit were thinned out: in the full panel of roughly 83,000, 20% have a hit.
growth for assorted compounds
Report the figure in % without appending any unit label.

Example compounds with recorded growth:
Compound smiles	Result unit	growth
C=C1C(=O)O[C@H]2[C@H]1CC/C(CNS(=O)(=O)c1cccc3ccccc13)=C\CC[C@@]1(C)O[C@@H]21	%	6.51
CC1(C)NCCC[C@]2(C)[C@H]3CC(=O)[C@H]4[C@@H]5C[C@](C)(CO)CC[C@]5(C)CC[C@@]4(C)[C@]3(C)CC[C@@H]12	%	67
COc1cc2nc(-c3ccc(C(F)(F)F)cc3)cc(OCCCN3CCCC3)c2cc1OC	%	46.2
C/C(=N\NC(=O)CSc1nc2ccccc2c(=O)n1Cc1ccc(S(N)(=O)=O)cc1)c1ccc(F)cc1	%	107

Reported growth (MOLT-4 leukemia) for entry N=C(N)c1ccc(OCCCCCCCCCCOc2ccc(C(=N)N)cc2)cc1 is -61

Reported growth (MOLT-4 leukemia) for entry C=C1C(=O)O[C@H]2[C@H]1CC/C(COC(=O)NCCc1c[nH]c3ccc(OC)cc13)=C\CC[C@@]1(C)O[C@@H]21 is 3.53

Reported growth (MOLT-4 leukemia) for entry O=C1Nc2cc(-c3ccc(NC(=O)C4CC4)cc3)ccc2/C1=C/c1ccc[nH]1 is 94.7

Reported growth (MOLT-4 leukemia) for entry COCc1cnccc1NC1CCCCCC1 is 94.4

Reported growth (MOLT-4 leukemia) for entry COc1ccc2[nH]c(=O)c(CN3CCN(c4nccc(-c5ccc(Cl)cc5)n4)CC3)cc2c1 is 75.5
